- TEST TARGET: Cathepsin S (Homo sapiens)
- ASSAY COMMENT: Cathepsin S inhibition assay (fluorogenic peptide substrate)
- Type: biochemical
- CONDITION SET: Table II, compounds of Formula I; read-out: Ki Cat. S
MEASURED ATTRIBUTE: Ki

Completed entries (count: 3):
COMPOUND	Ki
O=C(N[C@@H](CC1CCCCC1)C(=O)NCCNc1ccc(OC(F)(F)F)cc1)c1ccc(-c2ccccc2)o1 [Compound 65]	< 100 nM
COc1ccc(NCCNC(=O)C(NC(=O)c2cccc(C)c2)c2ccc(F)cc2)cc1 (stereo not shown) [Compound 227]	< 1000 nM
O=C(N[C@@H](CC1CCCCC1)C(=O)NCCNc1ccc(F)cc1)c1ccoc1 [Compound 272]	< 100 nM

Kindly consider the entry below.
### Prompt # return recorded Ki for input CC(C(=O)N[C@@H](CC1CCCCC1)C(=O)NCCNc1ccc(F)cc1)c1ccc(Cl)cc1 (stereo partly shown) [Compound 312]
### Response < 100 nM

----------
- TEST TARGET: Cathepsin S (Homo sapiens, UniProt P25774)
- Sequence (P25774 115-331, species assumed): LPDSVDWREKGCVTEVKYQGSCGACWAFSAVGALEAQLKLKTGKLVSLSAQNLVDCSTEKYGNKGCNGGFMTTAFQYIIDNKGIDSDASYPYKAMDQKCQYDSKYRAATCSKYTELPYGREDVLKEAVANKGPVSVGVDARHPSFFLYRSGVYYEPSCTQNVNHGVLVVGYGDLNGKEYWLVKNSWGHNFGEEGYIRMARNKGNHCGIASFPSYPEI
- ASSAY COMMENT: Cathepsin S inhibition assay (fluorogenic peptide substrate)
- Assay type: biochemical
- CONDITION SET: Table II, compounds of Formula I; read-out: Ki Cat. S
Below, each of the compounds is paired with its reported Ki value.

COMPOUND	Ki
O=C(N[C@@H](CC1CCCCC1)C(=O)NCCNc1ccc(F)cc1)C(F)c1ccccc1 (mixture of isomers)	< 100 nM
COc1ccc(NCCNC(=O)[C@H](CC2CCCCC2)NC(=O)c2ccc(C(F)(F)F)cc2F)cc1	< 1000 nM
O=C(N[C@@H](CC1CCCCC1)C(=O)NCCNc1ccc(OC(F)(F)F)cc1)c1ccoc1	< 100 nM
O=C(NCCNc1ccc(OC(F)(F)F)cc1)[C@H](CC1CCCCC1)NC(=O)[C@@H](O)c1ccccc1	< 100 nM

### Prompt Report value only: Ki, Cathepsin S (Homo sapiens, UniProt P25774), N#Cc1ccc(C(=O)N[C@@H](CC2CCCCC2)C(=O)NCCNc2ccc(F)cc2)cc1
### Response < 100 nM

### Prompt State Ki (Cathepsin S (Homo sapiens, UniProt P25774)) of O=C(N[C@@H](CC1CCCCC1)C(=O)NCCNc1ccc(F)cc1)C(c1ccccc1)c1ccccc1 .
### Response < 100 nM

### Prompt Enter measured Ki, system Cathepsin S (Homo sapiens, UniProt P25774), for the compound shown: Cc1ccc(-c2ccc(C(=O)N[C@@H](CC3CCCCC3)C(=O)NCCNc3ccc(OC(F)(F)F)cc3)s2)cc1
### Response < 1000 nM

### Prompt Report the value of Ki obtained on Cathepsin S (Homo sapiens, UniProt P25774) for O=C(N[C@@H](CC1CCCCC1)C(=O)NCCNc1ccc(OC(F)F)cc1)c1ccc(-c2cccc(C(F)(F)F)c2)o1 .
### Response < 100 nM

### Prompt Give Ki only, for O=C(Cc1cc(F)cc(F)c1)N[C@@H](CC1CCCCC1)C(=O)NCCNc1ccc(F)cc1 , using Cathepsin S (Homo sapiens, UniProt P25774) data.
### Response < 100 nM

### Prompt Write Ki of COc1ccc(NCCNC(=O)[C@H](CC2CCCC2)NC(=O)c2ccc(-c3cccc(C(F)(F)F)c3)o2)cc1 ; system used: Cathepsin S (Homo sapiens, UniProt P25774)
### Response < 100 nM

----------
- TEST TARGET: Cathepsin K (Homo sapiens, UniProt P43235)
- Sequence (P43235 115-329, species assumed): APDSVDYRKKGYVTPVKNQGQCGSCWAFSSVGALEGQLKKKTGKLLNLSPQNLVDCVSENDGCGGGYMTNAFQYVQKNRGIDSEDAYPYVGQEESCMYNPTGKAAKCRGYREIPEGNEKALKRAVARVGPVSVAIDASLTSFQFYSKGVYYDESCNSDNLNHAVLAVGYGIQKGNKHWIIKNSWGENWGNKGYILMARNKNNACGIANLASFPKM
- ASSAY COMMENT: Cathepsin K inhibition assay (fluorogenic peptide substrate); selectivity ratio vs cathepsin S
- Assay type: biochemical
- CONDITION SET: ratio of cathepsin K inhibition constant to cathepsin S inhibition constant; Table II
MEASURED ATTRIBUTE: Selectivity for Cat. S over Cat. K

Here is how some compounds turned out for Selectivity for Cat. S over Cat. K.
COMPOUND	TEST TARGET	Selectivity for Cat. S over Cat. K
COc1ccc(NCCNC(=O)C(NC(=O)c2cccc(C)c2)c2ccc(OC)cc2OC)cc1 (centres unmarked)	Cathepsin K (Homo sapiens, UniProt P43235)	+ (+, >10)
O=C(N[C@@H](CC1CCCCC1)C(=O)NCCNc1ccc(F)cc1)C(c1ccccc1)c1ccccc1	Cathepsin K (Homo sapiens, UniProt P43235)	+++ (+++, >1000)
COc1ccc(NCCNC(=O)[C@H](CC2CCCCC2)NC(=O)c2ccc(-c3ccccc3OC)cc2)cc1	Cathepsin K (Homo sapiens, UniProt P43235)	+ (+, >10)
COc1ccc(NCCNC(=O)[C@H](Cc2ccc(-c3cnc(OC)nc3OC)cc2)NC(=O)c2cccc(C)c2)cc1	Cathepsin K (Homo sapiens, UniProt P43235)	++ (++, >100)

Please look at the following compound next.
### Prompt Could you please provide reported Selectivity for Cat. S over Cat. K for O=C(N[C@@H](CC1CCCCC1)C(=O)NCCNc1ccc(F)cc1)c1ccoc1 ? Thanks!
### Response ++ (++, >100)

----------
Reported Ki values for a set of compounds
- TEST TARGET: UniProt P25774
- ASSAY COMMENT: Cathepsin S inhibition assay (fluorogenic peptide substrate)
- Format: biochemical
- CONDITION SET: Table II, compounds of Formula I; read-out: Ki Cat. S

### Prompt Print UniProt P25774 Ki for COc1ccc(NCCNC(=O)[C@H](CC2CCCCC2)NC(=O)c2cccc(CN)c2)cc1 .
### Response < 1000 nM

### Prompt Report measured Ki on UniProt P25774; entry: COc1ccc(NCCNC(=O)[C@H](Cc2ccc(Cl)c(Cl)c2)NC(=O)c2cccc(C)c2)cc1
### Response < 100 nM

----------
- TEST TARGET: Cathepsin K (Homo sapiens)
- ASSAY COMMENT: Cathepsin K inhibition assay (fluorogenic peptide substrate); selectivity ratio vs cathepsin S
- Assay type: biochemical
- CONDITION SET: ratio of cathepsin K inhibition constant to cathepsin S inhibition constant; Table II
- Method: The optimal substrate for cathepsin K, acetyl-lysine-histidine-proline-lysine-amino carbamoyl coumarin, was identified from screening a combinatorial library of fluorogenic peptide substrates (Harris, J. L., B. J. Backes, et al., Proc Natl Acad Sci USA 2000, 97(14), 7754-9). Kinetic measurements are performed in a total reaction volume of 30 μl in 384-well microtiter plates. […]
MEASURED ATTRIBUTE: Selectivity for Cat. S over Cat. K

Field: example entries. Status: answers known.
COMPOUND	Selectivity for Cat. S over Cat. K
COc1ccc(NCCNC(=O)[C@H](CC2CCCCC2)NC(=O)c2cccc(C)c2Cl)cc1 [Compound 108]	++ (++, >100)
O=C(Cc1ccc(F)cc1F)N[C@@H](CC1CCCCC1)C(=O)NCCNc1ccc(F)cc1 [Compound 100]	+++ (+++, >1000)
O=C(N[C@@H](CC1CCCCC1)C(=O)NCCNc1ccc(OC(F)(F)F)cc1)c1ccc(-c2ccc(OC(F)(F)F)cc2)s1 [Compound 207]	++ (++, >100)
O=C(Cc1ccccc1F)N[C@@H](CC1CCCCC1)C(=O)NCCNc1ccc(F)cc1 [Compound 306]	+++ (+++, >1000)
COc1ccc(NCCNC(=O)C(NC(=O)c2cccc(C)c2)c2cccs2)cc1 (stereo not drawn) [Compound 226]	+ (+, >10)
Cc1cc(C)nc(N2CCC(C(=O)N[C@@H](CC3CCCCC3)C(=O)NCCNc3ccc(OC(F)(F)F)cc3)CC2)n1 [Compound 72]	++ (++, >100)
COc1ccc(NCCNC(=O)[C@H](CC2CCCCC2)NC(=O)c2ccc(C#N)cc2)cc1 [Compound 121]	+ (+, >10)
CC(C(=O)N[C@@H](CC1CCCCC1)C(=O)NCCNc1ccc(F)cc1)c1ccc(O)cc1 (stereo partly drawn) [Compound 311]	+ (+, >10)

### Prompt Answer briefly: Selectivity for Cat. S over Cat. K recorded on Cathepsin K (Homo sapiens) for Cc1ccc(-c2ccc(C(=O)N[C@@H](CC3CCCCC3)C(=O)NCCNc3ccc(OC(F)(F)F)cc3)o2)cc1 [Compound 70]
### Response +++ (+++, >1000)

### Prompt State Selectivity for Cat. S over Cat. K (Cathepsin K (Homo sapiens)) of O=C(N[C@@H](CC1CCCCC1)C(=O)NCCNc1ccc(OC(F)(F)F)cc1)c1ccc(-c2ccccc2C(F)(F)F)o1 [Compound 219] .
### Response ++ (++, >100)

### Prompt Quote Cathepsin K (Homo sapiens) Selectivity for Cat. S over Cat. K for entry COc1ccc(NCCNC(=O)[C@H](Cc2ccc(Cl)cc2)NC(=O)c2ccc(-c3cccc(C(F)(F)F)c3)o2)cc1 [Compound 4] .
### Response +++ (+++, >1000)

### Prompt Enter measured Selectivity for Cat. S over Cat. K, system Cathepsin K (Homo sapiens), for the compound shown: COc1ccc(NCCNC(=O)[C@H](Cc2ccccc2)NC(=O)c2ccncc2)cc1 [Compound 64]
### Response + (+, >10)

### Prompt Retrieve Selectivity for Cat. S over Cat. K on Cathepsin K (Homo sapiens); query O=C(N[C@@H](CC1CCCCC1)C(=O)NCCNc1ccc(F)cc1)c1ccc(-c2cccc(C(F)(F)F)c2)o1 [Compound 85]
### Response ++ (++, >100)

### Prompt Write down measured Selectivity for Cat. S over Cat. K (Cathepsin K (Homo sapiens)) for this compound. COc1ccc(NCCNC(=O)[C@H](CC2CCCCC2)NC(=O)c2cnn(-c3ccccc3)c2C(F)(F)F)cc1 [Compound 115]
### Response +++ (+++, >1000)

### Prompt Quote Selectivity for Cat. S over Cat. K with test system Cathepsin K (Homo sapiens) for COc1ccc(NCCNC(=O)[C@H](Cc2ccc(-c3ccc(Cl)cc3)cc2)NC(=O)c2cccc(C)c2)cc1 [Compound 278]
### Response ++ (++, >100)
